Tested on: poliovirus 3 (PV3)
assay-remarks: microbe, parasite or virus in culture
Format: cell-based
condition-set: Enterovirus C, 72 h, read-out: EC50 PV3
measured-attribute: EC50

1) CC(C)c1ccc2c(c1)OC1(O)c3ccccc3C(=O)C21NC(=O)C(=O)Cc1ccc(O)cc1 (stereo not shown) | < 1 µg/mL
2) CC(C)c1ccc2c(c1)OC1(O)c3ccccc3C(=O)C21NC(=O)CCC(=O)N(C)C (stereo not shown) | < 10 µg/mL
3) Cc1cc(C)c(C(=O)C(=O)NC23C(=O)c4c(N)cccc4C2(O)Oc2cc(C(C)C)ccc23)c(C)c1 (stereo not shown) | < 10 µg/mL
4) Cc1cccc(C)c1NC(=O)C(=O)NC12C(=O)c3ccccc3C1(O)Oc1cc(C(C)C)ccc12 (stereo not shown) | < 10 µg/mL
5) CC(=O)C(=O)NC12C(=O)c3cccc([N+](=O)[O-])c3C1(O)Oc1cc(C(C)C)ccc12 (stereo not shown) | < 10 µg/mL
6) CC(C)c1ccc2c(c1)OC1(O)c3cccc(N)c3C(=O)C21NC(=O)C(=O)c1c[nH]c2ccccc12 (stereo not shown) | < 0.1 µg/mL
7) Cc1cc(C)c(C(=O)C(=O)NC23C(=O)c4cccc([N+](=O)[O-])c4C2(O)Oc2cc(C(C)C)ccc23)c(C)c1 (stereo not shown) | > 10 µg/mL
8) CCC(C)C(=O)C(=O)NC12C(=O)c3ccccc3C1(O)Oc1cc(C(C)C)ccc12 (stereo not shown) | < 1 µg/mL

For every record below, what is its EC50?
1. CC(C)c1ccc2c(c1)OC1(O)c3c(cccc3[N+](=O)[O-])C(=O)C21NC(=O)C(=O)N(C)C (stereo not shown)
2. CC(C)c1ccc2c(c1)OC1(O)c3ccccc3C(=O)C21NC(=O)CNC(=O)OC(C)(C)C (stereo not shown)
3. CCOC(=O)C(=O)NC12C(=O)c3c(N)cccc3C1(O)Oc1cc(C(C)C)ccc12 (stereo not shown)
4. COc1cc(C(=O)C(=O)NC23C(=O)c4ccccc4C2(O)Oc2cc(C(C)C)ccc23)cc(OC)c1OC (stereo not shown)
5. CCC(C)C(=O)C(=O)NC12C(=O)c3c(N)cccc3C1(O)Oc1cc(C(C)C)ccc12 (stereo not shown)

1. > 10 µg/mL
2. < 10 µg/mL
3. < 10 µg/mL
4. < 10 µg/mL
5. < 0.1 µg/mL
